Where do these numbers come from? They come from patent US20240043505A1.

Test Target: SARS-CoV-2 (Wuhan-Hu-1 strain) spike glycoprotein on pseudotyped virus particles (SARS-CoV-2, UniProt P0DTC2 14-1273)
Experiment: cell-based or functional assay
Binary label based on Pseudo-neut IC50 Luciferase with cut-off 1 nM: below gives Satisfied, not below gives Not satisfied.

binder="Nb95 (VHH) VHH: QVQLVESGGGLVQAGGSLRLSCAASGRTFSSYSMGWFRQAQGKEREFVATINGNGRDTYYTNSVKGRFTISRDDATNTVYLQMNSLKPEDTAIYYCAADKDVYYGYTSFPNEYEYWGQGTQVTVSS" classification="Not satisfied"
binder="Nb21 (VHH) VHH: QVQLVESGGGLVQAGGSLRLSCAVSGLGAHRVGWFRRAPGKEREFVAAIGANGGNTNYLDSVKGRFTISRDNAKNTIYLQMNSLKPQDTAVYYCAARDIETAEYTYWGQGTQVTVSS" classification=Satisfied
binder="Nb64 (VHH) VHH: QVQLVESGGGLVQAGGSLRLSCAVSGRTFSIAGMGWFRQAPGKDREFLGGITWNDGTTWYADSVKGRFTISRDNAKNMLSLRMNSLKPEDTAVYYCAAGPRLGSTPRAYDYWGQGTQVTVSS" classification="Not satisfied"
binder="Nb99 (VHH) VHH: QVQLVESGGGLVQTGGSLRLSCAASGSTRSIWYSGWYRQAPGKQRELVASLTSGGTTYYPDSMKGRFTISGSSGLNMVYLQMNSLRPEDTAVYSCNVRTGSGVYWGQGTQVTVSS" classification=Satisfied
binder="Nb20 (VHH) VHH: QVQLVESGGGLVQAGGSLRLSCAVSGAGAHRVGWFRRAPGKEREFVAAIGASGGMTNYLDSVKGRFTISRDNAKNTIYLQMNSLKPQDTAVYYCAARDIETAEYIYWGQGTQVTVSS" classification=Satisfied
binder="Nb17 (VHH) VHH: HVQLVESGGGLVQAGGSLRLSCAASGSIFSSNAMSWYRQAPGKQRELVASITSGGNADYADSVKGRFTISRDKNTVYPEMSSLKPADTAVYYCHAVGQEASAYAPRAYWGQGTQVTVSS" classification="Not satisfied"
binder="Nb36 (VHH) VHH: HVQLVESGGGLVQAGGSLTLTCAASGRTFSSETMDMGWFRQAPGKEREFVAADSWNDGSTYYADSVKGRFTISRDSAKNTLYLQMNSLKPEDTAVYYCAAETYSIYEKDDSWGYWGQGTQVTVSS" classification="Not satisfied"
binder="Nb34 (VHH) VHH: DVQLVESGGGLVQAGGSLRLSCAASGFTFSNYVMYWGRQAPGKGREWVSGIDSDGSDTAYASSVKGRFTISRDNAKNTLYLQMNNLKPEDTALYYCVKSKDPYGSPWTRSEFDDYWGQGTQVTVSS" classification="Not satisfied"
